target: Tyrosine-protein kinase Lck (Homo sapiens) (UniProt P06239); experiment: Inhibition of human recombinant Lck expressed in insect cells by Packard topcount method
Sequence (P06239 2-509 limits assumed): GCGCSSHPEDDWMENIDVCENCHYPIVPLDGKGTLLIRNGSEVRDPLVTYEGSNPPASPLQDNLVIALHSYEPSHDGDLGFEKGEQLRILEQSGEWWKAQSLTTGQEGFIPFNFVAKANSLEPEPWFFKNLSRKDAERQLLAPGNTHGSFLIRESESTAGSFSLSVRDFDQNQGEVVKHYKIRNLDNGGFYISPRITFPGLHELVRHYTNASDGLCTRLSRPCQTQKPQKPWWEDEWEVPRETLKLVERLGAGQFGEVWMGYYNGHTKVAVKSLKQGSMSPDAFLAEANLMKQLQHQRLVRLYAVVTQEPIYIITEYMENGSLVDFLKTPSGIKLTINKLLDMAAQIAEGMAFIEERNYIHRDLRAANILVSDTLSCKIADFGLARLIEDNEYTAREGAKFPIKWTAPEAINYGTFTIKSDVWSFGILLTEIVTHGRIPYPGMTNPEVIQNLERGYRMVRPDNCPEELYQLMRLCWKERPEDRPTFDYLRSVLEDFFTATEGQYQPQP
readout-kind: C50 (nM)

>>> assay_value("Cc1cccc(C(=O)c2[nH]c(-c3ccc(Oc4ccccc4)cc3)c(C(N)=O)c2N)c1")
4

(a) COc1ccccc1C(=O)c1[nH]c(-c2ccc(Oc3ccccc3)cc2)c(C(N)=O)c1N
(b) NC(=O)c1c(-c2ccc(NCC3CCCCC3)cc2)[nH]c(C(=O)c2c(F)cccc2F)c1N
stdin: Which entry shows the lesser value of C50 here, a or b ? Choose, then provide that item's label.
stdout: a

* * *

molecular target: Dual specificity mitogen-activated protein kinase kinase 1 (Homo sapiens, UniProt Q02750); assay: Inhibition of MEK1
Sequence (Q02750 whole entry): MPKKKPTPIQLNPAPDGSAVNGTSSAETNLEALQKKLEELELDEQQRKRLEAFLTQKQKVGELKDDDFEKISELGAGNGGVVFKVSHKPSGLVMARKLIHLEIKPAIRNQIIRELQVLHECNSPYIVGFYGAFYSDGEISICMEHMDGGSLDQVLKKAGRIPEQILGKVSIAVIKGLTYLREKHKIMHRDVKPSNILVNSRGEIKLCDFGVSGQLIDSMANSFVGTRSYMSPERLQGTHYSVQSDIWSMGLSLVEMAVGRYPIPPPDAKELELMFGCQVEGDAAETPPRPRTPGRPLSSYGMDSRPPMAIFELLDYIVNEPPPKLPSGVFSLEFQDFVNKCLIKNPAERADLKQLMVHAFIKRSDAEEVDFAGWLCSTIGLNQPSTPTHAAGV
readout-kind: IC50

stdin: Identify measured IC50 corresponding to NC(=O)c1c(-c2ccc(Oc3ccccc3)cc2)[nH]c(C(=O)c2c(F)cccc2F)c1N
stdout: > 10 µM

* * *

molecular target: UniProtKB P12931
Sequence (P12931 2-536 limits assumed): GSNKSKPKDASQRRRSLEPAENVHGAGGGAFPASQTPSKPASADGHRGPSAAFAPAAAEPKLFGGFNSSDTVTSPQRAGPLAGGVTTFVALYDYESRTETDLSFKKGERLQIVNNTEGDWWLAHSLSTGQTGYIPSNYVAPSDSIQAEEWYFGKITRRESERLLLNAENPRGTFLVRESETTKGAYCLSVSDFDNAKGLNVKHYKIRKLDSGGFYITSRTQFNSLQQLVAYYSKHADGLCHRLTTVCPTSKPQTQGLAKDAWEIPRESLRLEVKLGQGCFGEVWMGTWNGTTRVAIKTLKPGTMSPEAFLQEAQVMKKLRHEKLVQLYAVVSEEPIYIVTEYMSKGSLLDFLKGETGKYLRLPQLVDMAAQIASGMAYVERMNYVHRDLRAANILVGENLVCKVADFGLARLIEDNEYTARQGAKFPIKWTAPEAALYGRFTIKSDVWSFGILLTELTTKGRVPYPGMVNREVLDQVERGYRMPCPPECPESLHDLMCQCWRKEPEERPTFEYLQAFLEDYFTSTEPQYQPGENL
readout-kind: IC50 (nM)
Number in nM, nothing else.

stdin: Report IC50 on UniProtKB P12931 for this entry: NC(=O)c1c(-c2ccc(Oc3ccccc3)cc2)[nH]c(C(=O)c2c(F)cccc2F)c1N
stdout: 23

* * *

biological target: Tyrosine-protein kinase Lck (Homo sapiens); experiment: Inhibition of human recombinant Lck expressed in insect cells by Packard topcount method
readout-kind: C50 (nM)

Field: example entries. Status: answers known.
>>> assay_value("Cc1cccc(Cl)c1CNc1ccc(-c2[nH]c(C(=O)c3c(F)cccc3F)c(N)c2C(N)=O)cc1")
3.6
>>> assay_value("NC(=O)c1c(-c2ccc(Oc3ccccc3)cc2)[nH]c(C(=O)c2ccccc2Cl)c1N")
1.8
>>> assay_value("NC(=O)c1c(-c2ccc(Oc3ccccc3)cc2)[nH]c(C(=O)c2cccc(Br)c2)c1N")
6.2
>>> assay_value("NC(=O)c1c(-c2ccc(Oc3ccccc3)cc2)[nH]c(C(=O)c2ccccc2C(F)(F)F)c1N")
3.5

(A) NC(=O)c1c(-c2ccc(Oc3ccccc3)cc2)[nH]c(C(=O)c2ccccc2Br)c1N
(B) NC(=O)c1c(-c2ccc(Oc3ccccc3)cc2)[nH]c(C(=O)c2ccccc2F)c1N
(C) NC(=O)c1c(-c2ccc(OCc3ccccc3)cc2)[nH]c(C(=O)c2c(F)cccc2F)c1N
(D) Cc1cc(C)cc(C(=O)c2[nH]c(-c3ccc(Oc4ccccc4)cc3)c(C(N)=O)c2N)c1
stdin: Order the records by C50, with each subsequent value no larger than the one before. // rank by listing labels in the order requested
stdout: D, C, A, B
(D: 13 nM, C: 6.1 nM, A: 2.5 nM, B: 1.5 nM)

* * *

target: Tyrosine-protein kinase ABL1 (Homo sapiens, UniProt P00519)
Sequence (P00519 whole entry): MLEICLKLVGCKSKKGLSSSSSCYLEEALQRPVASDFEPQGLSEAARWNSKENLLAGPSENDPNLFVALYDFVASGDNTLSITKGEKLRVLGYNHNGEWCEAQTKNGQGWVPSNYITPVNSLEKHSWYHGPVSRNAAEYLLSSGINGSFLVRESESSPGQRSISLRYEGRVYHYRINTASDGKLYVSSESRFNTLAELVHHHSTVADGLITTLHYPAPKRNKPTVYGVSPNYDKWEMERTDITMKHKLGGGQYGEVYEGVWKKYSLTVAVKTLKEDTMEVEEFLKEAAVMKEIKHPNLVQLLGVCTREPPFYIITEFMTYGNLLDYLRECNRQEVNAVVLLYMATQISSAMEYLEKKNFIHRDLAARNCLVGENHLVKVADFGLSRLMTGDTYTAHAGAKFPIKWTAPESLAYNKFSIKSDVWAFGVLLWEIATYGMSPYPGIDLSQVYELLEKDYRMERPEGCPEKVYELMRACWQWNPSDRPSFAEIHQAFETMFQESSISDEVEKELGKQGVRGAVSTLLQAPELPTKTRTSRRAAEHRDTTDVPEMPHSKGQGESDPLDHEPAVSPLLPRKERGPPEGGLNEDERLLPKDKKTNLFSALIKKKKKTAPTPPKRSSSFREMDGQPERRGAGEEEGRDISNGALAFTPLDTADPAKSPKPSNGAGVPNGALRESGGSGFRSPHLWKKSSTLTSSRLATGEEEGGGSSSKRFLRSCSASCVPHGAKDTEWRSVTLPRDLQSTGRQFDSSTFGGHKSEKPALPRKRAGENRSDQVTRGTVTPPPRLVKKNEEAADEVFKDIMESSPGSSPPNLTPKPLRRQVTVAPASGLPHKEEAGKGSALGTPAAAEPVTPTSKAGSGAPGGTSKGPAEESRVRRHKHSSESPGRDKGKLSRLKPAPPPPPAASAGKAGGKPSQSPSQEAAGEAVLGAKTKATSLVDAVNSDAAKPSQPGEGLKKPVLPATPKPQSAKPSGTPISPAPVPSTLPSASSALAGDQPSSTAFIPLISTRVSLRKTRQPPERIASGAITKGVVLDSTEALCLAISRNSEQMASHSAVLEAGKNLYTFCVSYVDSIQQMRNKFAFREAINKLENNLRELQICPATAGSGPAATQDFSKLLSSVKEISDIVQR
readout-kind: IC50

stdin: Give IC50; test system Tyrosine-protein kinase ABL1 (Homo sapiens, UniProt P00519); compound NC(=O)c1c(-c2ccc(Oc3ccccc3)cc2)[nH]c(C(=O)c2c(F)cccc2F)c1N
stdout: > 10 µM

* * *

Target protein (sequence): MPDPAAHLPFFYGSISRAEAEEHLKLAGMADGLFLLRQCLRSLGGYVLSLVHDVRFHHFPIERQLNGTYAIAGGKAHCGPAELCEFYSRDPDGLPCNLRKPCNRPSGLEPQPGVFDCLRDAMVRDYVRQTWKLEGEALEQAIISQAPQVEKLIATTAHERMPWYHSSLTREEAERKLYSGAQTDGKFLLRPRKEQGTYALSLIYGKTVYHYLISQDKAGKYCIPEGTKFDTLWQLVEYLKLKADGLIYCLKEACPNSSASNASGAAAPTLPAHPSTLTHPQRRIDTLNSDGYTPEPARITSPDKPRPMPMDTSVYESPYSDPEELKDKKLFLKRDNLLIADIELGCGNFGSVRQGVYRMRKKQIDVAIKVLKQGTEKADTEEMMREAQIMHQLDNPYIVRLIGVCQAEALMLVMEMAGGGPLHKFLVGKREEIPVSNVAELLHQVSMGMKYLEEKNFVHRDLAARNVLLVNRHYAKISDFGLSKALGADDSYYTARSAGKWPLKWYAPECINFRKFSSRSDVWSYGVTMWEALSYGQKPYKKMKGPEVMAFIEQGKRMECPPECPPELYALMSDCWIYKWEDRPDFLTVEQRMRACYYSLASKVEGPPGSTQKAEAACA
readout-kind: IC50

stdin: Using known records, supply IC50 for NC(=O)c1c(-c2ccc(Oc3ccccc3)cc2)[nH]c(C(=O)c2c(F)cccc2F)c1N
stdout: > 10 µM
